Source: the METLIN SMRT retention time set (Domingo-Almenara et al. 2019)

- TEST_NAME: gradient 5% acetonitrile 3 min, to 50% in 2 min, to 85% in 15 min, held 3 min, 100 µL/min
- APPLIED_CONDITIONS: column: Zorbax Extend-C18 2.1 x 50 mm; eluents: water / acetonitrile, 0.1% formic acid
Classification field: enter y for RP-LC retention time values not below 900 s, n for values below it.

Query :: Does the compound CC1=C(c2ccc(C)cc2)S(=O)(=O)N=C1N1CCCN(C(=O)Cc2cccnc2)CC1 have recorded RP-LC retention time that is 900 s or more?
Result :: n

Query :: Does the reported RP-LC retention time for COc1ccc(-c2noc(Cn3nc(-c4cccc(OC)c4)ccc3=O)n2)cc1 fall at or above the 900 s mark?
Result :: y

Query :: Say whether COc1nccnc1NC1CCN(C(=O)c2ccc(C#N)cc2)CC1 shows RP-LC retention time of 900 s or more.
Result :: n

Query :: Reported RP-LC retention time at or above 900 s? Cn1cc(C(=O)N2CCOCC2)cc(NC(=O)c2cccs2)c1=O
Result :: n

Query :: Does the reported RP-LC retention time for COC(=O)c1cnn(-c2ccc(C(=O)N3CCCC3)cc2)c1N fall at or above the 900 s mark?
Result :: n

Query :: Please tell me: is the compound Cc1ccc(NC(=O)Cn2nc(N(C)C)c3ccccc3c2=O)c(C)c1 at or over 900 s in terms of RP-LC retention time?
Result :: n

====

- TEST_NAME: gradient 5% acetonitrile 3 min, to 50% in 2 min, to 85% in 15 min, held 3 min, 100 µL/min
- APPLIED_CONDITIONS: column: Zorbax Extend-C18 2.1 x 50 mm; eluents: water / acetonitrile, 0.1% formic acid
I'd appreciate it if you could supply RP-LC retention time values for the items below.
Answer with a number only, understood to be in s.

Query :: Using the record for CN(C)c1ccc(CNC(=O)Cc2cn(C)c3ncccc23)cc1 , report its RP-LC retention time.
Result :: 704

Query :: Record request: RP-LC retention time value, item COc1ccc(CN(Cc2ccccc2)Cc2cc(=O)n3cc(Cl)ccc3n2)cc1OC
Result :: 687

Query :: Quick check: RP-LC retention time of CCNc1cc(N2CCCC(CCC(=O)Nc3ccc(OCC)cc3)C2)ncn1 (configuration not stated) ?
Result :: 699

Query :: Can you look up the measured RP-LC retention time of N#Cc1c(C(F)(F)F)cc(-c2ccccc2)nc1SCCC(N)=O for me?
Result :: 839

Query :: Entry CCc1noc(NC(C)=O)c1-c1ccc(C)c(S(=O)(=O)Nc2ccc(C)c(F)c2)c1 has what RP-LC retention time?
Result :: 856

Query :: Field request: RP-LC retention time | item: CCOc1nc(OCC)c2cnn(C)c2n1
Result :: 901

Query :: Value lookup for RP-LC retention time; key = COc1ccc(OC)c(C(O)CN2CCN(c3cccc(C)c3)CC2)c1 (configuration not stated)
Result :: 712

Query :: Quick one: RP-LC retention time for Cc1ccc(-c2nnc(CC(=O)NCC3CCCO3)o2)cc1 (configuration not stated) ?
Result :: 667

Query :: Param item = Cc1oc(C2CCN(C(=O)c3cc4ccccc4[nH]3)CC2)nc1C(=O)N1CCSCC1 ; retrieve measured RP-LC retention time.
Result :: 847

Query :: Can you share its RP-LC retention time? I mean this molecule: CCN1C(=O)CCc2cc(NS(=O)(=O)c3c(C)cccc3Cl)ccc21
Result :: 846

Query :: Returns the measured RP-LC retention time for the input molecule. Input: CCCS(=O)(=O)N1CCN(c2ccc(-n3cccn3)nn2)CC1
Result :: 694

Query :: Would you mind telling me what RP-LC retention time value was observed for COc1ccc(-c2cc(C(F)(F)F)n3ncc(C(=O)O)c3n2)cc1 ?
Result :: 822

====

- TEST_NAME: gradient 5% acetonitrile 3 min, to 50% in 2 min, to 85% in 15 min, held 3 min, 100 µL/min
- APPLIED_CONDITIONS: column: Zorbax Extend-C18 2.1 x 50 mm; eluents: water / acetonitrile, 0.1% formic acid
READOUT_NAME: RP-LC retention time (s)
Write down the numeric answer in s and omit the unit.

Query :: Fill blank: measured RP-LC retention time of the compound CN(C)C(=O)c1csc(S(=O)(=O)N2CCC(C(=O)NCc3cccs3)CC2)c1 is ____.
Result :: 718

Query :: Need RP-LC retention time, item O=C(Cc1ccc(Br)cc1)NC1CCN(c2cc(-c3cccs3)[nH]n2)C1 (configuration not stated)
Result :: 767

Query :: Find the recorded RP-LC retention time belonging to Cc1cccc(-c2ncccc2CNS(=O)(=O)Cc2ccc(Cl)cc2)c1 and report it.
Result :: 765

Query :: Please give the measured RP-LC retention time for this compound: COCC(C)(O)CNC(=O)NC1CCCCC1 (configuration not stated)
Result :: 596

Query :: Need RP-LC retention time of O=C(Cn1c(=O)oc2ccccc21)N1CC2CC(C1)c1cccc(=O)n1C2 (configuration not stated) , thanks.
Result :: 588

Query :: Tell me the measured RP-LC retention time of CSc1cccc(NC(=O)Cn2nc3n(c2=O)CCCC3)c1 , please.
Result :: 669

Query :: So what's the measured RP-LC retention time for this one? O=C(Nc1ccc(N2CCN(Cc3ccc(F)cc3)C2=O)nc1)c1cccs1
Result :: 570

====

- TEST_NAME: gradient 5% acetonitrile 3 min, to 50% in 2 min, to 85% in 15 min, held 3 min, 100 µL/min
- APPLIED_CONDITIONS: column: Zorbax Extend-C18 2.1 x 50 mm; eluents: water / acetonitrile, 0.1% formic acid
READOUT_NAME: RP-LC retention time (s)
Numbers only; they are read as s.

Query :: Which value of RP-LC retention time has been reported for CC(C)(C)c1ccc(C(=O)NCc2ccco2)cc1 in the records?
Result :: 873

Query :: Field request: RP-LC retention time | item: Cc1nc(-c2csc(S(=O)(=O)N3CCC(C(=O)Nc4ccccc4)CC3)c2)no1
Result :: 878

Query :: Entry under review: CCOC(=O)c1cccc(NC(=O)c2cnc(-c3ccccc3)nc2-c2ccncc2)c1 . Reported RP-LC retention time?
Result :: 924

Query :: Requested field: RP-LC retention time. Item: Cc1ccc(C)c2sc(N(C)CC(=O)Nc3ccc(S(C)(=O)=O)cc3)nc12
Result :: 892

Query :: Item COC(=O)c1cc(OCC(=O)Nc2ccc(Cl)cc2)c2cc(OC)ccc2n1 has what recorded RP-LC retention time?
Result :: 899

Query :: Would you kindly share the measured RP-LC retention time for CCSc1nc2ccc(NS(=O)(=O)c3ccc(F)c(C)c3)cc2s1 ?
Result :: 1060

Query :: Need RP-LC retention time of Cc1nc2cccnc2n1C1CCN(C(=O)Nc2ccc3c(c2)OCCO3)CC1 , thanks.
Result :: 612

Query :: # RP-LC retention time lookup, item O=C(CSc1ccc(N2CCCC(C(=O)NC3CC3)C2)nn1)NCCc1ccc(Cl)cc1 (stereo not given)
Result :: 666

Query :: What does the data say about its RP-LC retention time? Entry: Cc1sc(-c2cc(C(F)(F)F)on2)cc1S(=O)(=O)Nc1cccc(Cl)c1C
Result :: 1240

Query :: Which RP-LC retention time is listed for Cc1nc2cc(-c3noc(-c4ccc(Br)cc4)n3)ccc2n(C)c1=O ?
Result :: 1180

Query :: // RP-LC retention time lookup, key: CC(Cc1ccco1)NC(=O)c1ccc2nc(CCc3ccccc3)oc2c1 (stereo not given)
Result :: 714

Query :: // returns reported RP-LC retention time for input Cn1nc(-c2nc(-c3ccccc3)no2)c2c1CCN(C(=O)NC1CCCCC1)C2
Result :: 914

Query :: For the compound CC1Cc2ccccc2N1C(=O)c1ccc(=O)n(CCC(=O)NC2CCCCCCC2)n1 (stereo not given) , what RP-LC retention time is on record?
Result :: 895

Query :: Consider the compound shown here: Cc1ccc(-c2nnc(-c3nc(NCCCN4CCCC4=O)c4ccccc4n3)o2)cc1 What is its recorded RP-LC retention time?
Result :: 807

Query :: Dear colleague, I am looking for the recorded RP-LC retention time of the following compound: CS(=O)(=O)Nc1cccc(NC(=O)C2CCN(CC(=O)Nc3ccc(F)cc3)CC2)c1
Result :: 564

====

- TEST_NAME: gradient 5% acetonitrile 3 min, to 50% in 2 min, to 85% in 15 min, held 3 min, 100 µL/min
- APPLIED_CONDITIONS: column: Zorbax Extend-C18 2.1 x 50 mm; eluents: water / acetonitrile, 0.1% formic acid
READOUT_NAME: RP-LC retention time (s)
Write the value in s as a bare number.

Query :: Query (compound): CCOc1ccc(C(=O)Nc2ccc(-c3cn4ccc(C)nc4n3)cc2)cc1OCC ; field requested: RP-LC retention time
Result :: 684

Query :: Find the recorded RP-LC retention time belonging to CNC(=O)c1cc(N2CCCC2)nc2ccc(F)cc12 and report it.
Result :: 591

Query :: Look up RP-LC retention time: Cn1cc(-c2ccc3ncc(Cc4ccc5ncccc5c4)n3n2)cn1
Result :: 582

Query :: Fill blank: measured RP-LC retention time of the compound CC1(C)C(=O)Nc2ccc(S(=O)(=O)N3CCC(c4noc(-c5ccccn5)n4)C3)cc21 (stereo not drawn) is ____.
Result :: 705

Query :: Using the record for COc1ccc(CCNC(=O)Cc2csc3nc(-c4ccc(OC)c(OC)c4)cn23)cc1OC , report its RP-LC retention time.
Result :: 661

Query :: Quick check: RP-LC retention time of Cc1cc(C)c(NC(=O)COc2cc(C)nc(N3CCN(c4ccccc4)CC3)n2)c(C)c1 ?
Result :: 942

Query :: Please give the measured RP-LC retention time for this compound: Cc1ccc(-c2coc(-c3ccc(NC(=O)NC4CCCC4)cc3)n2)c(C)c1
Result :: 1180

Query :: Looking for the measured RP-LC retention time of Cc1ccccc1N1CCN(C(=O)c2ccnc(N3CCCC3)n2)CC1 , can you help?
Result :: 996

Query :: Endpoint output: RP-LC retention time of CC1(C)CC(=O)c2cn(-c3ccc(Cl)cc3)c(=O)c(C(=O)N3CCC(N4CCCCC4)CC3)c2C1 . Value?
Result :: 667

Query :: Given the compound Cc1c2c(nn1-c1ccc(SCc3cccc(F)c3)nn1)CCC2 , what is its reported RP-LC retention time?
Result :: 1280

Query :: Requested read-out: RP-LC retention time. Entry: Cc1ccc(-c2csc(NC(=O)CN3C(=O)COc4ccc(Cl)cc43)n2)cc1
Result :: 1070

Query :: For CCCNC(=O)N1CCC(c2noc(-c3cccnc3)n2)C1 (stereo not drawn) , what is its reported RP-LC retention time?
Result :: 642

Query :: Look up RP-LC retention time for this compound: COc1ccc(NC(=O)C(C)C2CCN(C(=O)Nc3ccc(Cl)cc3)CC2)cc1 (stereo not drawn)
Result :: 854

Query :: Give the measured RP-LC retention time of O=C(Cn1ccn2nc(-c3ccc(F)cc3)c(CO)c2c1=O)N1CCCC1 .
Result :: 683

Query :: Give the measured RP-LC retention time of CCOC(=O)C1=C(CN2CCCCC2)NC(=O)NC1c1ccco1 (stereo not drawn) .
Result :: 579

Query :: Requested field: RP-LC retention time. Item: Cc1nc(-c2cc(S(=O)(=O)N(Cc3ccccc3)C(C)C)c(C)s2)sc1C
Result :: 978

Query :: # input compound: Cc1nc(-c2cc(S(=O)(=O)NCC(=O)N3CCN(c4ccccc4)CC3)c(C)s2)no1 ; wanted: its RP-LC retention time
Result :: 896

Query :: Requested field: RP-LC retention time. Item: COC(=O)c1ccc(C(=O)OC)c(NC(=O)c2cnc3n(c2=O)CCS3)c1
Result :: 700

Query :: Item COC(=O)c1c(C)[nH]c(C(=O)N2CCC(CC(=O)NCc3ccc(F)cc3)CC2)c1C has what recorded RP-LC retention time?
Result :: 727

Query :: Look up RP-LC retention time: CCc1ccc(C2=NN(CCC(=O)NC(C)c3ccc4c(c3)OCCO4)C(=O)CC2)cc1 (stereo not drawn)
Result :: 832

Query :: Please report the recorded RP-LC retention time for COc1ccc(OC)c(CNC(=O)[C@@H]2[C@H](c3cc(OC)c(OC)c(OC)c3)c3cc4c(cc3[C@H](O)[C@H]2CO)OCO4)c1 .
Result :: 721

Query :: Entry CCN(CC)C(=O)N1CCCC1Cc1noc(-c2cccnc2)n1 (stereo not drawn) : reported RP-LC retention time = ?
Result :: 712

Query :: What value of RP-LC retention time has been recorded for this entry: CCOc1ccc(S(=O)(=O)NCc2c(-c3ccccc3)nc3sc(CC)nn23)cc1
Result :: 963
